B1: scFv; the commonest letter at each place (parent)
chain 1: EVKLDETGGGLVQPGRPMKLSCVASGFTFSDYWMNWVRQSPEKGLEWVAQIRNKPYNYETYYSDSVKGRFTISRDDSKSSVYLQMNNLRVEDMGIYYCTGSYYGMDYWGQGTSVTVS
chain 2: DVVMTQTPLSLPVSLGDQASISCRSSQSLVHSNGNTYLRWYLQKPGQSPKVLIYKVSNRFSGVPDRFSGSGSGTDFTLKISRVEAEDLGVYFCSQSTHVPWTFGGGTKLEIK

Variants of: B1
ASSAY_SUMMARY: Kd (Tite-Seq)
DETAILS: with fluorescein; format: scFv 4-4-20, heavy + light
READOUT_NAME: Kd (nM)

# VARIANT_SPEC, UNIT_DESCRIPTOR, Kd
measured = [
    ("chain 1 T28W D31F", "nM", 116),
]

(A) chain 1 T28S D31C
(B) chain 1 F29Q V37M
Request: // pick larger Kd from pair: A vs B Label of pick, please.
Response: A
